Test system: Plasmodium berghei
Assay Summary: Luciferase/luciferin-expressing antifolate-resistant parasites were used to infect a culture of HepG2 cells that were pre-incubated with compounds. Infected hepatocytes emit light due to the luciferase reaction. Assay results are presented as the percent inhibition of light emission compared to control. […]
Type: functional
Assay Setup: sporozoite, PBLUC_HILL_SLOPE 1.97, PBLUC_R_SQUARED 0.394, read-out: LUCIFERASE INFECTION ASSAY - IC50
Attribute Measured: IC50 (µM)

>>> value("Fc1cccc(-n2ccnc2SCc2nc3ccccc3s2)c1")
6.86

---

Tested on: Plasmodium berghei
Assay Summary: Luciferase/luciferin-expressing antifolate-resistant parasites were used to infect a culture of HepG2 cells that were pre-incubated with compounds. Infected hepatocytes emit light due to the luciferase reaction. Assay results are presented as the percent inhibition of light emission compared to control. […]
Format: functional
Assay Setup: sporozoite, PBLUC_HILL_SLOPE 4.47, PBLUC_R_SQUARED 0.0939, read-out: LUCIFERASE INFECTION ASSAY - IC50
pIC50: −log10 of the molar value.
Attribute Measured: pIC50

>>> value("CCN1C(=O)N(Cc2cccc(OC)c2)C(=O)C12CCN(Cc1cn(C)c3ccccc13)CC2")
5.22

---

System: Plasmodium berghei
Assay Summary: Luciferase/luciferin-expressing antifolate-resistant parasites were used to infect a culture of HepG2 cells that were pre-incubated with compounds. Infected hepatocytes emit light due to the luciferase reaction. Assay results are presented as the percent inhibition of light emission compared to control. […]
Assay type: functional
Assay Setup: sporozoite, FFLUC_HILL_SLOPE 15.7, FFLUC_R_SQUARED 0.514, PBLUC_HILL_SLOPE 7.31, PBLUC_R_SQUARED 0.494, read-out: LUCIFERASE INFECTION ASSAY - IC50
pIC50: −log10 of the molar value.
Attribute Measured: pIC50

>>> value("Cc1cc(C(=O)CSc2nnc(Cc3cccc4ccccc34)n2C2CCCCC2)c(C)n1CC(F)(F)F")
5.07

---

System: Plasmodium berghei
Assay Summary: Luciferase/luciferin-expressing antifolate-resistant parasites were used to infect a culture of HepG2 cells that were pre-incubated with compounds. Infected hepatocytes emit light due to the luciferase reaction. Assay results are presented as the percent inhibition of light emission compared to control. […]
Format: functional
Assay Setup: sporozoite, PBLUC_HILL_SLOPE 1.06, PBLUC_R_SQUARED 0.652, read-out: LUCIFERASE INFECTION ASSAY - IC50
pIC50: −log10 of the molar value.
Attribute Measured: pIC50

>>> value("O=C(Nc1ccc(F)cc1)Nc1cnn(-c2ccc(Cl)cc2)c1C(F)(F)F")
6.58

---

Test system: Plasmodium berghei
Assay Summary: Luciferase/luciferin-expressing antifolate-resistant parasites were used to infect a culture of HepG2 cells that were pre-incubated with compounds. Infected hepatocytes emit light due to the luciferase reaction. Assay results are presented as the percent inhibition of light emission compared to control. […]
Format: functional
Assay Setup: sporozoite, read-out: LUCIFERASE INFECTION ASSAY - IC90
Parameter IC90: see the listing below.
Attribute Measured: IC90

>>> value("O=[N+]([O-])c1ccc(Oc2cncc(Cl)c2)c(-c2nnc(-c3ccc(C(F)(F)F)cc3)o2)c1")
"> 7.13 µM"
>>> value("CC(=O)c1cccc(-c2cnc3ccc(-c4ccc(F)cc4)nn23)c1")
"4.45 µM"
>>> value("O=C(OCc1cn(-c2ccccc2)nc1-c1ccccc1)c1ccc(N2CCOCC2)nc1")
"> 10 µM"
>>> value("CN1/C(=C/C=C/c2ccc3ccccc3[n+]2C)C=Cc2ccccc21")
"2.78 µM"
>>> value("O=C(CCc1c(-c2ccc(F)cc2)[nH]c2ccc(F)cc12)N1CCN(c2ccncc2)CC1")
"8.48 µM"
>>> value("OCc1ccc(-c2cnc3ccc(-c4ccoc4)nn23)cc1")
"> 10 µM"
>>> value("O=C(Nc1ccc(-c2nc(-c3ccc(O)c(O)c3)cs2)cc1)c1cccs1")
"> 10 µM"
>>> value("CCC(OC(=O)c1cc2ccccc2[nH]1)C(=O)Nc1cc(C)on1 (stereo not given)")
"> 10 µM"
>>> value("COc1ccccc1NC(=S)NC(c1ccccc1)c1ccccc1")
"> 9.47 µM"
>>> value("CCOc1ccc2c(c1)C(=O)C(=O)N2Cc1ccc(OC)cc1")
"> 10.6 µM"
>>> value("Cc1nc(-c2ccc(CNC(=O)COc3ccccc3-c3ccccc3)o2)cs1")
"> 10 µM"
>>> value("Cc1cc(C)n(-c2nc(C)c(Br)c(N(C)C)n2)n1")
"> 10.6 µM"
>>> value("N#Cc1ccc(CN2CCN(c3ccc(-c4nc5ccccc5[nH]4)cn3)CC2)cc1")
"> 10 µM"
>>> value("CC1Cc2cc(S(N)(=O)=O)ccc2N1CCCOc1ccc(F)cc1 (stereo not given)")
"> 10 µM"
>>> value("O=C(Nc1cccc(-n2cnnn2)c1)c1ccc(-c2ccccc2Cl)o1")
"> 9.02 µM"
>>> value("COc1c(Cl)cc(C(=O)Nc2nonc2-c2ccc(F)cc2)cc1Cl")
"2.81 µM"
>>> value("O=C(NCc1ccc(Cl)cc1Cl)/C(=C/c1cccs1)n1nnnc1-c1ccccc1")
"> 10 µM"
>>> value("COc1ccc(Nc2nccc3c2cc(-c2ccccc2OC)n3C)c(OC)c1")
"8.07 µM"
>>> value("CC(C)c1ccc(-c2csc(NC(=O)c3cccc(NC(=O)C4CCCO4)c3)n2)cc1 (stereo not given)")
"> 10 µM"
>>> value("CC(C)c1ccc(NC(=O)[C@@H]2Cc3ccccc3CN2C(=O)OC(C)(C)C)cc1")
"> 8.36 µM"
>>> value("Cc1cc(C(=O)NCC#Cc2cccc(C(F)(F)F)c2)on1")
"8.21 µM"
>>> value("Cc1ccc(-n2c(C)cc(C(=O)CNCc3ccccc3)c2C)cc1")
"> 10 µM"
>>> value("CCOC(=O)c1c(C)[nH]c(C(=O)Nc2nc(-c3c(C)cc(C)cc3C)cs2)c1C")
"9.66 µM"
>>> value("Cc1ccc(-c2nnc(SCC(=O)c3c(N)n(C)c(=O)n(C)c3=O)nc2-c2ccc(C)cc2)cc1")
"> 10 µM"
>>> value("C=C(C#N)CN1CCN(CC(=C)C#N)CC1")
"14.9 µM"
>>> value("CC(C)[C@H](NS(=O)(=O)c1ccc2c(c1)OCCO2)C(=O)Nc1nc(-c2ccc(F)c(F)c2)cs1")
"> 10 µM"
>>> value("C/N=c1\\scc(-c2ccc(OC(F)F)cc2)n1/N=C/c1cccs1")
"2.72 µM"
>>> value("CC(C)C(Nc1ccc(C(F)(F)F)cc1Cl)C(=O)Nc1nc(-c2ccccc2Cl)cs1 (stereo not given)")
"6.73 µM"
>>> value("Cc1cccc(C=C(C(=O)Nc2ccccc2Cl)C(=O)Nc2ccccc2Cl)c1")
"> 10 µM"
>>> value("Cc1ccc(-c2cnn3c(NCCN(C)C)cc(C)nc23)cc1")
"10.6 µM"
>>> value("C=CCn1c(-c2c(C)oc3ccccc23)cs/c1=N\\S(=O)(=O)c1cccs1")
"> 10 µM"
>>> value("O=C(Nc1ccccc1)ON=C1CC2CCCC(C1)N2Cc1ccccc1")
"> 9.08 µM"
>>> value("CCn1c(NC(=O)c2cccnc2Oc2ccccc2)nc2ccccc21")
"> 10 µM"
>>> value("Cc1ccc(S(=O)(=O)N2CCN(C(=O)C3CCN(c4nc5ccccc5o4)CC3)CC2)cc1C")
"2.62 µM"
>>> value("CC(=O)O[C@H]1C[C@@H](O[C@@H]2C(C)O[C@H](O[C@@H]3C(C)O[C@@H](O[C@H]4CC[C@@]5(C)C(CCC6C5C[C@@H](O)[C@]5(C)[C@@H](C7=CC(=O)OC7)CC[C@]65O)C4)C[C@@H]3O)C[C@@H]2O)OC(C)[C@H]1O[C@@H]1O[C@H](CO)[C@@H](O)[C@H](O)[C@H]1O (stereo not given in full)")
"> 3.35 µM"
>>> value("NC(Cc1ccccc1)c1csc(NC(=O)Nc2ccccc2-c2ccccc2)n1 (stereo not given)")
"> 7.96 µM"
>>> value("Oc1c(C(Nc2ccccn2)c2ccc(Cl)cc2Cl)ccc2cccnc12 (stereo not given)")
"5.13 µM"
>>> value("Cc1nccnc1-c1ccnn1C(=O)Nc1cc(Cl)cc(Cl)c1")
"0.481 µM"
>>> value("COc1ccccc1C(=O)/C=C/c1ccc(N2CCCCC2)c([N+](=O)[O-])c1")
"> 10 µM"
>>> value("CC1(C)CC(=O)c2c(SCCOC(=O)Nc3ccccc3)sc(C#N)c2C1")
"> 8.24 µM"
